Values compiled from patent US4965259A.

Give Therapeutical index LD50/ED50 for every item shown.
test system: sleep induced with hexobarbital; experiment: Narcosis potentiating activity (sleep induced with hexobarbital on mice); format: in vivo; conditions: narcosis potentiation, p.o.
Where a name gives a salt, the structure may show the parent alone.

Identify Therapeutical index LD50/ED50 associated with the compound CC(CN(C)C)CN1c2ccccc2OCOc2ccc(Cl)cc21 (stereo not shown) [traboxopin] 10.8

Identify Therapeutical index LD50/ED50 associated with the compound CNC1=Nc2ccc(Cl)cc2C(c2ccccc2)=[N+]([O-])C1 [chlordiazepoxide] 62.0

Identify Therapeutical index LD50/ED50 associated with the compound CCCC(C)(COC(N)=O)COC(N)=O [meprobamate] 4.2

Identify Therapeutical index LD50/ED50 associated with the compound CNCC(C)CN1c2ccccc2OCOc2ccc(Cl)cc21 (stereo not shown) [Example 3, hydrochloride] 208
